B1: SLC22A15 (parent)
chain: IAQYALLGYFIRSWRTLAILVNLQ

variants of: B1; assay: protein stability index of a GFP-peptide fusion (GPS, HEK-293T) (PSI 1-6); higher = more stable; conditions: c terminus: a fixed tail appended;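 also: lentivirally expressed fusions sorted by FACS into six bins by GFP to DsRed ratio, PSI derived from sequencing read proportions per bin multiplied by bin number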

- Variant Name: "R12M"
  protein stability index: 2.98
- Variant Name: "G8Q"
  protein stability index: 3.07
- Variant Name: "G8V"
  protein stability index: 2.97
